# Experimental Target: full-length beta-Catenin (Uniprot ID P35222) (Homo sapiens (Human)) (UniProt P35222)
# Sequence (P35222 2-781 limits assumed): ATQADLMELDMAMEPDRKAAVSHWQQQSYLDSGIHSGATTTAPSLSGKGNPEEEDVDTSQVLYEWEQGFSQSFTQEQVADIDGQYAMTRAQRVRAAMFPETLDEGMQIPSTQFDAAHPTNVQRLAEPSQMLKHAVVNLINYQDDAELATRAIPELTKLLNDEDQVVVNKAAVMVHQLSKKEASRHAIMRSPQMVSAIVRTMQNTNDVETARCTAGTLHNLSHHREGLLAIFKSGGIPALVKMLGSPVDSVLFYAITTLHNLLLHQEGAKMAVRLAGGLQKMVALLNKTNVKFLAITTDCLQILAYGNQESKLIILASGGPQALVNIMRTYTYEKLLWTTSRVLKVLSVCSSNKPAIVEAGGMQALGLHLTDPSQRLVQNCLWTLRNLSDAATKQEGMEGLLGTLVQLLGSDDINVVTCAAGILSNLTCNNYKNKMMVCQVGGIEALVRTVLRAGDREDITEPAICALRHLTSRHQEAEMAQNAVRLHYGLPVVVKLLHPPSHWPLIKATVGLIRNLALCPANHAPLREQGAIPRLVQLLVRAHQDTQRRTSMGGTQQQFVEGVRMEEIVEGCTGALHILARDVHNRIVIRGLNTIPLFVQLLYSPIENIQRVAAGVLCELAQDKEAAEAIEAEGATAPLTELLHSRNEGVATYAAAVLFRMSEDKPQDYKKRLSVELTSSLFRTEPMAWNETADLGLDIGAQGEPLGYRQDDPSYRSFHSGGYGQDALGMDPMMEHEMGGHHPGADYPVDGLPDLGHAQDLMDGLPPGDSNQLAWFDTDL
# Assay Comment: fluorescence polarization competition; displaces 5FAM-TCF4(10-53) from full-length beta-catenin
Starred links: 1 amine or outer side, 2 acyl side, 3 side chain; linkers in the order of their positions; H or OH if unused. Positions of bridges follow the written chain, without caps; N, C: chain ends. Non-standard residues stand in square brackets, D forms with d. Primed or numbered codes have the meaning given here. PyrS2″ = (S)-3-amino-1-((pent-4-en-1-yloxy)carbonyl)pyrrolidine-3-carboxylic acid (stapling residue), C=CCCCOC(=O)N1CC[C@@](N[*:1])(C(=O)[*:2])C1; B5(18) = 2,2-bis(4-pentenyl)glycine (2-amino-2-(pent-4-en-1-yl)hept-6-enoic acid), stitching residue, C=CCCCC(CCCC=C)(N[*:1])C(=O)[*:2]; B5(5) = 2,2-bis(4-pentenyl)glycine, 2-amino-2-(pent-4-en-1-yl)hept-6-enoic acid (stitching residue), C=CCCCC(CCCC=C)(N[*:1])C(=O)[*:2]; TfeGA = (S)-2-amino-3-((carboxymethyl)(2,2,2-trifluoroethyl)amino)propanoic acid, O=C([C@H](CN(CC(=O)[*:3])CC(F)(F)F)N[*:1])[*:2]; B5(3) = 2,2-bis(4-pentenyl)glycine (stitching residue), C=CCCCC(CCCC=C)(N[*:1])C(=O)[*:2]; Phe(2-Cl) = N[C@@H](Cc1ccccc1Cl)C(=O)O; Phe(2-F) = N[C@@H](Cc1ccccc1F)C(=O)O; Bta = N[C@@H](Cc1csc2ccccc12)C(=O)O; αAllylPro = C=CC[C@@]1(C(=O)O)CCCN1; tBuAla = CC(C)(C)C[C@H](N)C(=O)O; 3Thi = N[C@@H](Cc1ccsc1)C(=O)O
Kindly apply the following: true (1) if EC50 is less than 9 nM, false (0) in every other case.

Ac-[αAllylPro]D[tBuAla][B5(5)]DDAAFT[PyrS2″][Phe(2-F)][Bta]Q-NH2 (staple 1-4, 4-11) [I-1021] : true (1)
Ac-[αAllylPro]D[tBuAla][B5(5)]DNAAFS[PyrS2″][Phe(2-Cl)][Bta]Q-NH2 (staple 1-4, 4-11) [I-1018] : false (0)
Ac-[αAllylPro]D[tBuAla][B5(5)]D[TfeGA]AFFN[PyrS2″][Phe(2-Cl)][Bta]Q-NH2 (staple 1-4, 4-11) [I-1003] : false (0)
Ac-[αAllylPro]D[tBuAla][B5(18)]D[TfeGA]KAFN[PyrS2″][Phe(2-Cl)][Bta]Q-NH2 (staple 1-4, 4-11) [I-1011] : true (1)
Ac-[αAllylPro]D[tBuAla][B5(18)]D[TfeGA]LAFN[PyrS2″][Phe(2-Cl)][Bta]Q-NH2 (staple 1-4, 4-11) [I-1007] : true (1)
Ac-[αAllylPro]D[tBuAla][B5(18)]DDAAFS[PyrS2″][Phe(2-Cl)][Bta]Q-NH2 (staple 1-4, 4-11) [I-1017] : true (1)
Ac-[αAllylPro]D[tBuAla][B5(3)][3Thi][TfeGA]AAFN[PyrS2″]D[Bta]Q-NH2 (staple 1-4, 4-11) [I-1001] : false (0)
Ac-[αAllylPro]D[tBuAla][B5(5)]D[TfeGA]AIFN[PyrS2″][Phe(2-Cl)][Bta]Q-NH2 (staple 1-4, 4-11) [I-1005] : false (0)
Ac-[αAllylPro]D[tBuAla][B5(5)]DDAAFT[PyrS2″][Phe(2-Cl)][Bta]Q-NH2 (staple 1-4, 4-11) [I-1013] : true (1)
Ac-[αAllylPro]D[tBuAla][B5(18)]D[TfeGA]ASFN[PyrS2″][Phe(2-Cl)][Bta]Q-NH2 (staple 1-4, 4-11) [I-1004] : true (1)

Task item: Take the binder Ac-[αAllylPro]D[tBuAla][B5(5)]DNAAFT[PyrS2″][Phe(2-F)][Bta]Q-NH2 (staple 1-4, 4-11) [I-1022] and say whether its EC50 is less than 9 nM.
Reply: false (0)

Task item: Try this binder too: Ac-[αAllylPro]D[tBuAla][B5(5)]D[TfeGA]IAFN[PyrS2″][Phe(2-Cl)][Bta]Q-NH2 (staple 1-4, 4-11) [I-1010]
Reply: true (1)

Task item: Also check Ac-[αAllylPro]D[tBuAla][B5(5)]DNAAFS[PyrS2″][Phe(2-Cl)][Bta]S-NH2 (staple 1-4, 4-11) [I-1020]
Reply: false (0)

Task item: Queued: Ac-[αAllylPro]D[tBuAla][B5(5)]D[TfeGA]AKFN[PyrS2″][Phe(2-Cl)][Bta]Q-NH2 (staple 1-4, 4-11) [I-1006]
Reply: true (1)

Task item: What do you have for Ac-[αAllylPro]D[tBuAla][B5(18)]DNAAFT[PyrS2″][Phe(2-Cl)][Bta]S-NH2 (staple 1-4, 4-11) [I-1016] ?
Reply: true (1)

Task item: Ac-[αAllylPro]D[tBuAla][B5(5)]DNAAFT[PyrS2″][Phe(2-Cl)][Bta]Q-NH2 (staple 1-4, 4-11) [I-1014] ?
Reply: false (0)

Task item: Another binder to look at: Ac-[αAllylPro]D[tBuAla][B5(18)]DDAAFS[PyrS2″][Phe(2-Cl)][Bta]S-NH2 (staple 1-4, 4-11) [I-1019]
Reply: true (1)

The reported numbers originate from patent US20240116985A1.
